Test system: HCC 2998
MEASUREMENT_DESCRIPTION: NCI tumour cell line growth inhibition, 48 h
The source made the active and inactive calls. No stated cut-off is given here; in the data, active = GI50 up to about 1.1 µM and inactive = higher.
Give your call using only these classes: t = active, f = inactive

Worked examples, 3 compounds total:
compound="Cc1c2oc3c(C)cc(F)c(C(=O)NC4C(=O)NC(C(C)C)C(=O)N5CCCC5C(=O)N(C)CC(=O)N(C)C(C(C)C)C(=O)OC4C)c3nc-2c(C(=O)NC2C(=O)NC(C(C)C)C(=O)N3CCCC3C(=O)N(C)CC(=O)N(C)C(C(C)C)C(=O)OC2C)c(N)c1=O (centres undefined)" class_name=t
compound="Nc1cccc(OCC2CCCN3CCCCC23)c1 (centres undefined)" class_name=f
compound=Cc1cccc2c(N)c3cccc(C(=O)NCC[N+](C)(C)Cc4ccc([N+](=O)[O-])n4C)c3nc12 class_name=f

Let us examine a further case.
*Q* Kindly provide the recorded test outcome for the following compound: C=C1C(=O)OC2C1CCC(C)C1(O)C=CC(=O)C21C (centres undefined)
*A* f

* * *

Tested on: MCF7
MEASUREMENT_DESCRIPTION: NCI tumour cell line growth inhibition, 48 h
Calls of active or inactive are those of the source. Rule as the data show it: active = GI50 up to about 1.1 µM and inactive = higher.
Give your call using only these classes: active, inactive

Worked examples, 5 molecules total:
molecule=COc1c(C(=O)O)cccc1-c1cccc(C(=O)NCCN(CCNC(=O)c2cccc(-c3cccc(C(=O)O)c3OC)c2OC)CCNC(=O)c2cccc(-c3cccc(C(=O)O)c3OC)c2OC)c1OC class_name=inactive
molecule=O=[N+]([O-])c1cc(Cl)ccc1S(=O)(=O)c1ccccc1 class_name=inactive
molecule="Cc1ccc(-n2c(Cn3nnc(-c4cccnc4)n3)nn(C3OC(COC(=O)c4ccccc4)C(OC(=O)c4ccccc4)C3OC(=O)c3ccccc3)c2=S)cc1 (stereo not given)" class_name=inactive
molecule=CN(C)/N=C/c1cn(C)c(=O)n(C)c1=O class_name=inactive
molecule=COc1cc(-c2c(C#N)c(N)c(C#N)c3c2COc2ccccc2-3)cc(OC)c1OC class_name=inactive

*Q* Kindly provide the recorded test outcome for the following molecule: `c1ccc(CNCCN2CCNCC2)nc1`
*A* inactive

*Q* Note, next up: O=C(/C(=N\Nc1ccc([N+](=O)[O-])cc1[N+](=O)[O-])NC12CC3CC(CC(C3)C1)C2)C(Br)C(=O)c1ccccc1 (stereo not given)
*A* inactive

*Q* Note, next up: O=C(c1ccc(Cl)cc1)N1N=C(c2ccc(Cl)cc2)CC1(O)c1cc(F)c(Cl)cc1Cl (stereo not given)
*A* inactive

*Q* Note, next up: `Cc1cc(O)no1`
*A* inactive

*Q* Note, next up: CC(C)CCCC(C)[C@H]1CC[C@H]2N/C(=N/Cc3ccccc3)CCC[C@]12C (stereo not given in full)
*A* inactive

* * *

System: HL-60
MEASUREMENT_DESCRIPTION: NCI tumour cell line growth inhibition, 48 h
Activity calls are given as the source filed them. Cut-off read from the data, not from the text of the source: active = GI50 up to about 1.1 µM and inactive = higher.
QUANTITY_MEASURED: GI50

Examples with answers:
compound="N#Cc1c(-c2ccc(Cl)cc2)c2c(n(C3OC(CO)C(O)C(O)C3O)c1=S)CCCC2 (stereo unspecified)" measured_target=HL-60 result="24.7 µM (inactive)"
compound=C/C=C(/C)C(=O)O[C@H]1C[C@@H]2[C@@H](O)c3occ(C)c3C[C@]2(C)[C@@H](C)C1 measured_target=HL-60 result="9.93 µM (inactive)"
compound=CCOc1ccccc1NC(=O)C(=O)CC(=O)c1sc(Nc2nnc(-c3ccc(Cl)c(Cl)c3)o2)nc1C measured_target=HL-60 result="> 100 µM (inactive)"
compound="CC(O)c1ccc(C(O)/C(=N\\NC(=O)c2ccncc2)c2nc3ccc([N+](=O)[O-])cc3nc2O)cc1 (stereo unspecified)" measured_target=HL-60 result="50.5 µM (inactive)"
compound=Brc1ccc2[nH]cc(-c3csc(-c4ccccn4)n3)c2c1 measured_target=HL-60 result="26.5 µM (inactive)"

For each of the compounds below, state GI50.
1. COc1cc2c(cc1Oc1c(Oc3c(O)c(OC)cc4c3C(CC(C)C)N(C)CC4)c(OC)cc3c1C(CC(C)C)N(C)CC3)C(CC(C)C)N(C)CC2 (stereo unspecified)
2. CCOC(=O)Nc1ccc(S(=O)(=O)I)cc1.CCOC(=O)Nc1ccc(S(=O)(=O)I)cc1.CNC(=O)N=O.NC(=O)OCCCl
3. C=C(C)[C@@H]1CCC2=C[C@H](OC2=O)[C@@]2(C)C[C@@H]2C2=CC(C)=C(O2)[C@H]1O
4. COc1ccc(NC(=O)/C(O)=C/C(=O)c2ccccc2)cc1
5. COc1ccc2c(c1O)[C@@]13CCCC=C1[C@@H](C2)N(C)CC3
6. N#C/C(=C\c1ccccc1F)C(=O)c1ccccc1
7. C=C1C(=O)OC2/C=C(\C)CC/C=C(/C)CC(OC(=O)/C(=C/CO)CO)C12 (stereo unspecified)
8. CCOP(=O)(Nc1ccc2oc(=O)c3ccccc3c2c1)OCC

*A*
3.03 µM (inactive)
45.3 µM (inactive)
46.6 µM (inactive)
> 10 µM (inactive)
21.4 µM (inactive)
66.7 µM (inactive)
3.33 µM (inactive)
19.4 µM (inactive)

For each of the compounds below, state GI50.
1. CC1=NN(c2nc(N)nc(-c3sccc3N)n2)C(C)(C)C1
2. CC1(C)C(=O)/C=C\C(=O)C(C)(C)C2=CC=C(O2)C(C)(C)C(=O)C(Br)C(Br)C(=O)C(C)(C)C2=CC=C1O2 (stereo unspecified)
3. Cn1c(=O)nc2n(-c3ccc(Cl)cc3Cl)c3ccccc3nc-2c1=O

*A*
1. 71.3 µM (inactive)
2. 4.76 µM (inactive)
3. 3.18 µM (inactive)

* * *

System: M14
MEASUREMENT_DESCRIPTION: NCI tumour cell line growth inhibition, 48 h
The source made the active and inactive calls. No stated cut-off is given here; in the data, active = GI50 up to about 1.1 µM and inactive = higher.
QUANTITY_MEASURED: GI50

Examples with answers:
compound=CN1CCN(Cn2nc(COc3ccccc3Cl)n(/N=C/c3ccc(-c4ccc(Cl)cc4Cl)o3)c2=S)CC1 measured_target=M14 result="28.8 µM (inactive)"
compound="Cc1ccc(S(=O)(=O)NNC2Oc3cc4c(cc3C(c3ccccc3O)C2C)OCO4)cc1 (stereo not given)" measured_target=M14 result="13.4 µM (inactive)"
compound="COc1ccc(C(Nc2ccccn2)c2cc(C(C)(C)C)cc(C(C)(C)C)c2O)cc1 (stereo not given)" measured_target=M14 result="16.4 µM (inactive)"
compound=c1ccc(CN2CCC3(CC2)SSC2(CCN(Cc4ccccc4)CC2)SS3)cc1 measured_target=M14 result="> 100 µM (inactive)"
compound="COc1ccc(OC)c(C2CCc3cnc4nc(N)nc(N)c4c3C2)c1 (stereo not given)" measured_target=M14 result="92.3 µM (inactive)"
compound=CC(=O)Nc1ccc(C2=N/C(=C\c3ccc(Cl)c(Cl)c3)C(=O)O2)cc1 measured_target=M14 result="> 100 µM (inactive)"
compound="COC(=O)C(CCC(=O)CCl)N1C(=O)c2ccccc2C1=O (stereo not given)" measured_target=M14 result="5.27 µM (inactive)"
compound=CN(C)CCNC(=O)c1cc(-c2nccn2C)nc2ccccc12 measured_target=M14 result="> 100 µM (inactive)"

For each of the compounds below, state GI50.
1. CCOc1ccc(C2=NN(CC)C(=O)C(C3C(=O)N(c4ccccc4)N=C3C)C2)cc1 (stereo not given)
2. O=C(O)C(F)(OC(F)(F)C(F)(F)C(F)(F)F)C(F)(F)F (stereo not given)

*A*
1: > 100 µM (inactive); 2: > 100 µM (inactive)

* * *

Exercise: for every item that follows, state its recorded GI50.
Tested on: HT-29
MEASUREMENT_DESCRIPTION: NCI tumour cell line growth inhibition, 48 h
The source made the active and inactive calls. Rule as the data show it: active = GI50 up to about 1.1 µM and inactive = higher.

Examples with answers:
compound=COc1cc(Nc2nnc3n2S(=O)(=O)c2cc(C)c(Cl)cc2S3)cc(OC)c1 result="12.4 µM (inactive)"
compound=COc1ccc2c(c1O)[C@@]13CCCC=C1[C@@H](C2)N(C)CC3 result="32.1 µM (inactive)"
compound="COc1ccc(C(=O)C(c2ccc(OC)cc2)C2(O)C(=O)Nc3c2ccc(Cl)c3C)cc1 (centres undefined)" result="> 100 µM (inactive)"
compound=Cc1cc(S(=O)(=O)Nc2nc(N)nc(N(C)C)n2)c(S)cc1Cl result="> 10 µM (inactive)"
compound=CCOc1cc(NC(C)=O)ccc1C(=O)NN1C(=O)/C(=C/c2ccco2)N=C1c1ccccc1 result="> 100 µM (inactive)"

For each of the compounds below, state GI50.
1. CCOc1ccc(C2=NN(CC)C(=O)C(C3C(=O)N(c4ccccc4)N=C3C)C2)cc1 (centres undefined)
2. COc1ccc(Oc2nc3c(N)cc(C(F)(F)F)cc3nc2-c2ccccc2)cc1

*A*
1: > 100 µM (inactive); 2: 10.8 µM (inactive)

For each of the compounds below, state GI50.
1. COc1ccc(C(c2cc3c(cc2O)OCO3)N2CCOCC2)cc1OC (centres undefined)
2. C/C=C1/CN2CCC34C(=C(C(=O)OC)C1CC23)Nc1ccc(O)cc14 (centres undefined)
3. C[C@@]12C[C@@H](c3ccccc3O1)N1Cc3ccccc3CSC1=N2

*A*
["12.9 µM (inactive)", "> 100 µM (inactive)", "38.3 µM (inactive)"]

For each of the compounds below, state GI50.
1. COc1ccc2cc(CNCCCCCCNC(=O)Nc3cccc4ccccc34)ccc2c1
2. C[C@@]1(OC(=O)c2cc([N+](=O)[O-])cc([N+](=O)[O-])c2)C[C@@H]2CCCC[C@@H]21
3. CC(=O)O[C@H]1CCC2[C@@H]3CCC4C(=O)c5oncc5C[C@]4(C)C3CC[C@@]21C (some centres undefined)
4. CC1(C)C(=O)/C=C\C(=O)C(C)(C)C2=CC=C(O2)C(C)(C)C(=O)C(Br)C(Br)C(=O)C(C)(C)C2=CC=C1O2 (centres undefined)
5. O=C(Cn1c2ccc(Br)cc2c2nc3ccccc3nc21)NNC(=S)NC1CCCCC1
6. CC(O)c1ccc(C(O)/C(=N\NC(=O)c2ccncc2)c2nc3ccc([N+](=O)[O-])cc3nc2O)cc1 (centres undefined)
7. O=C(O)/C(Cl)=C(\Cl)C(=O)NC1C2CC3CC(C2)CC1C3 (centres undefined)

*A*
1. > 100 µM (inactive)
2. > 100 µM (inactive)
3. > 100 µM (inactive)
4. 41.8 µM (inactive)
5. 15.5 µM (inactive)
6. 96.2 µM (inactive)
7. > 100 µM (inactive)

For each of the compounds below, state GI50.
1. O=[N+]([O-])c1ccc(C(Nc2ccccc2)c2ccc3cccnc3c2O)cc1 (centres undefined)
2. O=C1Nc2ccccc2/C1=N/N1C(=O)/C(=C/c2ccccc2S)N=C1c1ccccc1

*A*
1: 7.08 µM (inactive); 2: > 100 µM (inactive)

// data source = ChEMBL document CHEMBL1201862
